- Study Target: Caspase-6 (Homo sapiens)
- Sequence (P55212 24-179 limits assumed): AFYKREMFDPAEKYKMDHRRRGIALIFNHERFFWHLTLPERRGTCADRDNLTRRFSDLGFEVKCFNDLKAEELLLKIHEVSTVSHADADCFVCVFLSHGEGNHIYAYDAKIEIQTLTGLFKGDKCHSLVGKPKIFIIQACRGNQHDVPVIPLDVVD
- Sequence (P55212 194-293 limits assumed): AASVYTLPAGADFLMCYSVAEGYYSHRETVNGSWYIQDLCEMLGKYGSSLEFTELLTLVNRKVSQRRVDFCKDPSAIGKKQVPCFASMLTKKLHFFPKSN
- Test Summary: Inhibition of recombinant human caspase-6 expressed in Escherichia coli using Ac-VEID-AMC as substrate preincubated for 30 mins before substrate addition measured after 2 hrs
Assay Metric: IC50

Reference set (3 entries):
Chem Smiles | Result
O=C1C(=O)N(Cc2ccc(OCCF)cc2)c2ccc(S(=O)(=O)N3CCC[C@H]3COc3ccccc3)cc21 | > 10 µM
O=C1C(=O)N(Cc2ccccc2I)c2ccc(S(=O)(=O)N3CCC[C@H]3CF)cc21 | 3.88 µM
O=C1C(=O)N(Cc2ccccc2[N+](=O)[O-])c2ccc(S(=O)(=O)N3CCC[C@H]3CF)cc21 | 5.08 µM

# input // lookup IC50 for COC[C@@H]1CCCN1S(=O)(=O)c1ccc2c(c1)C(=O)C(=O)N2Cc1ccc(OCCF)cc1
# output > 10 µM

# input Same question, COC[C@@H]1CCCN1S(=O)(=O)c1ccc2c(c1)C(=O)C(=O)N2Cc1ccc(OC)cc1 this time
# output > 10 µM

# input Follow-up entry: O=C1C(=O)N(Cc2ccc(I)cc2)c2ccc(S(=O)(=O)N3CCC[C@H]3CF)cc21
# output 3.79 µM

# input O=C1C(=O)N(Cc2ccc(Cl)cc2)c2ccc(S(=O)(=O)N3CCC[C@H]3CF)cc21 ?
# output > 10 µM

# input Same read-out for COc1ccc(CN2C(=O)C(=O)c3cc(S(=O)(=O)N4CCC[C@H]4CF)ccc32)cc1 ?
# output > 10 µM

# input Similarly, O=C1C(=O)N(Cc2cccc([N+](=O)[O-])c2)c2ccc(S(=O)(=O)N3CCC[C@H]3CF)cc21 ?
# output > 10 µM
